Biological target: Lipoxygenase-5 (LOX-5) enzyme (Homo sapiens)
Construct: purchased sigma 437996-500U
Sequence (P09917 1-674): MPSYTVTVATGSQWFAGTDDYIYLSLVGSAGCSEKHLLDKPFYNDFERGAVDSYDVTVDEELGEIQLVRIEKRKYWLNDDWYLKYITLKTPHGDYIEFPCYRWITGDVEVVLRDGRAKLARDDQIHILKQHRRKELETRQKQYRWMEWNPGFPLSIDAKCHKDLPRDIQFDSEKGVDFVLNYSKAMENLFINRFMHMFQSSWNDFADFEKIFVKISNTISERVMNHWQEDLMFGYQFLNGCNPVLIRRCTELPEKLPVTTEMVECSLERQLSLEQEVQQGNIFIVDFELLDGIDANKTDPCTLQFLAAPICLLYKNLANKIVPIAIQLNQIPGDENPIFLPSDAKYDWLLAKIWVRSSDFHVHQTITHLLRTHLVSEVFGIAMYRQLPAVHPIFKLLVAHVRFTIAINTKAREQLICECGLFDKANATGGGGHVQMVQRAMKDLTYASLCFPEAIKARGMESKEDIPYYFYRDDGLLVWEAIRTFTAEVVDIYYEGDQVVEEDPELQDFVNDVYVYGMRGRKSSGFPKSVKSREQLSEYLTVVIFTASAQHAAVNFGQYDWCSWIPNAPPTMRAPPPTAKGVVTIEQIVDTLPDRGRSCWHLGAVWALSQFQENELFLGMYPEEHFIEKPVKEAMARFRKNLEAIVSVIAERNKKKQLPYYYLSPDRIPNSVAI
Test: In vitro lipoxygenase (LOX-5) inhibitory assay
Format: biochemical
Conditions: mean ± SEM, n = 5; read-out: IC50 (LOX-5 inhibition) (converted)
Each record is given Satisfied if its reported IC50 is strictly below 4 mM. Records at or above 4 mM are given Not satisfied.

{"MOLECULE": "COc1ccc([C@H]2[C@H](c3ccccc3)N[C@@]3(C(=O)Nc4ccccc43)[C@@]23NC(=O)NC3=O)cc1 (racemic)", "CATEGORY LABEL": "Not satisfied"}
{"MOLECULE": "O=C1NC(=O)[C@]2(N1)[C@@H](c1ccc(Cl)cc1)[C@H](c1ccccc1)N[C@@]21C(=O)Nc2ccc(Br)cc21 (racemic)", "CATEGORY LABEL": "Satisfied"}
{"MOLECULE": "O=C1NC(=O)[C@]2(N1)[C@@H](c1ccc(Br)cc1)[C@H](c1ccccc1)N[C@@]21C(=O)N(Cc2ccccc2)c2ccccc21 (racemic)", "CATEGORY LABEL": "Not satisfied"}

Given the entry O=C1NC(=O)[C@]2(N1)[C@@H](c1ccc(Cl)cc1)[C@H](c1ccccc1)N[C@@]21C(=O)Nc2ccccc21 (racemic) , would its reported IC50 be below 4 mM? Satisfied

Given the entry O=C1NC(=O)[C@]2(N1)[C@@H](c1ccc(Cl)cc1)[C@H](c1ccccc1)N[C@@]21C(=O)N(Cc2ccccc2)c2ccccc21 (racemic) , would its reported IC50 be below 4 mM? Not satisfied

Given the entry COc1ccc([C@H]2[C@H](c3ccccc3)N[C@@]3(C(=O)Nc4ccc(Cl)cc43)[C@@]23NC(=O)NC3=O)cc1 (racemic) , would its reported IC50 be below 4 mM? Not satisfied

Given the entry O=C1NC(=O)[C@]2(N1)[C@@H](c1ccccc1O)[C@H](c1ccccc1)N[C@@]21C(=O)Nc2ccc(Cl)cc21 (stereo in doubt) , would its reported IC50 be below 4 mM? Satisfied

Given the entry O=C1NC(=O)[C@]2(N1)[C@@H](c1ccccc1O)[C@H](c1ccccc1)N[C@@]21C(=O)Nc2ccccc21 (racemic) , would its reported IC50 be below 4 mM? Satisfied
